# STUDY TARGET: human CYP11B2 (Homo sapiens, UniProt P19099)
# Construct: expressed in transfected cells; host or cells: V79 cells (clone V79-hCYP11B2-CLE9)
# Sequence (P19099 25-503): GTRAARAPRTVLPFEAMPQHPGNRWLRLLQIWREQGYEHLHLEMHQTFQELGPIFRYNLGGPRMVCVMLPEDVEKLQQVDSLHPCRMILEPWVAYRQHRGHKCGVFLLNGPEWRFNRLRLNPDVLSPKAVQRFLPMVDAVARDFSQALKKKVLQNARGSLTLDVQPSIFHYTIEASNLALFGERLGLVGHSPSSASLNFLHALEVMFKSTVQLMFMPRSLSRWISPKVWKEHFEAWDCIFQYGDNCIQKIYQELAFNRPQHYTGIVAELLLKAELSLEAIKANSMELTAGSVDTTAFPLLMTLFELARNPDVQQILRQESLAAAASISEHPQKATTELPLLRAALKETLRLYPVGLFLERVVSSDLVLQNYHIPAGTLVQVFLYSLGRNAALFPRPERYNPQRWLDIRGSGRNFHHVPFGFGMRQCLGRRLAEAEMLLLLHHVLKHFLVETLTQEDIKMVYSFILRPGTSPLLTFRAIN
# PROTOCOL SUMMARY: V79MZh11B2 cell assay, [3H]-deoxycorticosterone, HPLC radioflow detection
# Type: cell-based
# ASSAY CONTEXT: V79MZh11B2 cells, 100 nM deoxycorticosterone, 50 min, read-out: V79 Human CYP11B2 IC50
pIC50: −log10 of the molar value.
VALUE KIND: pIC50

(a) Cc1nnc2n1-c1c(F)cc(-c3cccnc3)cc1CC2
(b) COc1cncc(-c2cc(F)c3c(c2)CCc2nnc(C)n2-3)c1
### Prompt Out of a and b , name the one with the higher pIC50. The response must carry the label of the picked entry.
### Response b

(a) Cc1nnc2n1-c1c(F)cc(-c3cncc(-c4ccccc4)c3)cc1CC2
(b) Cc1nnc2n1-c1c(F)cc(-c3cncc(C(C)O)c3)cc1CC2 (centres unmarked)
(c) Cc1nnc2n1-c1c(F)cc(-c3cncc(F)c3)cc1CC2
(d) Cc1nnc2n1-c1c(F)cc(-c3cncc4ccccc34)cc1CC2
### Prompt rank_up(items): orders items by reported pIC50 in ascending numerical order. Please list the labels according to the requested order.
### Response c, b, a, d
